The molecules listed here are annotated with their Cmax.
- experimental.protocol: Pharmacokinetic study in CD-1 mice (gavage, intravenous, intraperitoneal)
- Assay type: in vivo
- test.parameters: male, CD-1, mouse, plasma, po, 20 mg/kg, p.o. (gavage 20 mg/Kg per Table 3), individual animal
Your answer is read as ng/mL, so omit the unit and give the number.

- molecule: "O=C(NCc1ccccc1)C(=O)[C@H](C[C@@H]1CCNC1=O)NC(=O)[C@H](CC1CCCCC1)NC(=O)c1ccc2ccccc2n1 [Example A42]"
  Cmax, ng/mL: 1020

For Cc1cnc(C(=O)N[C@@H](CC2CCCCC2)C(=O)N[C@@H](C[C@@H]2CCCNC2=O)C(=O)C(=O)NCc2ccccc2)o1 [Example A241] , what is its reported Cmax?
707

###

- experimental.protocol: Pharmacokinetic study in CD-1 mice (gavage, intravenous, intraperitoneal)
- Format: in vivo
- test.parameters: male, CD-1, mouse, plasma, ip, 20 mg/kg, i.p. (20 mg/Kg per Table 3), Mean of 3 mice; read-out: AUC last (exposure for intraperitoneal injection)
test.readout: AUC(0-t)
Please append the unit to your numeric answer.

Answered cases to consult:
- smiles.text: "Cc1cnc(C(=O)N[C@@H](CC2CCCCC2)C(=O)N[C@@H](C[C@@H]2CCNC2=O)C(=O)C(=O)NCc2ccccc2)o1"
  AUC(0-t): "6890 ng·h/mL"
- smiles.text: "Cc1cnc(C(=O)N[C@@H](CC2CCCCC2)C(=O)N[C@@H](C[C@@H]2CCCNC2=O)C(=O)C(=O)NCc2ccccc2)o1"
  AUC(0-t): "4160 ng·h/mL"

In the following, a different molecule is considered.
For O=C(NCc1ccccc1)C(=O)[C@H](C[C@@H]1CCNC1=O)NC(=O)[C@H](CC1CCCCC1)NC(=O)c1cc2ccccc2o1 , what is its reported AUC(0-t)?
8190 ng·h/mL

###

- experimental.protocol: Pharmacokinetic study in CD-1 mice (gavage, intravenous, intraperitoneal)
- Type: in vivo
- test.parameters: male, CD-1, mouse, plasma, ip, 20 mg/kg, i.p. (20 mg/Kg per Table 3), Mean of 3 mice
- Procedure: Nine CD-1 mice, male, weighing 18-22 g, were randomly divided into 3 groups with 3 mice in each group. The test compounds were administered by gavage, intravenously and intraperitoneally according to the following schemes. […] The drug was administered according to the above dosage, the time of administration were recorded, and 20 μL of blood was collected from the mouse femoral plexus at the above set time point and placed in a heparinized test tube and centrifuged immediately at 11000 rpm for 5 min. […]
The compounds listed here are annotated with their Cmax.
Your answer is read as ng/mL, so omit the unit and give the number.

Answered cases to consult:
- compound: "Cc1cnc(C(=O)N[C@@H](CC2CCCCC2)C(=O)N[C@@H](C[C@@H]2CCCNC2=O)C(=O)C(=O)NCc2ccccc2)o1 [Example A241]"
  Cmax (ng/mL): 4660
- compound: "O=C(NCc1ccccc1)C(=O)[C@H](C[C@@H]1CCNC1=O)NC(=O)[C@H](CC1CCCCC1)NC(=O)c1cc2ccccc2o1 [Example A9]"
  Cmax (ng/mL): 2910
- compound: "O=C(NCc1ccccc1)C(=O)[C@H](C[C@@H]1CCNC1=O)NC(=O)[C@H](CC1CCCCC1)NC(=O)c1ccc2ccccc2n1 [Example A42]"
  Cmax (ng/mL): 4280

In the following, a different compound is considered.
For Cc1cnc(C(=O)N[C@@H](CC2CCCCC2)C(=O)N[C@@H](C[C@@H]2CCNC2=O)C(=O)C(=O)NCc2ccccc2)o1 [Example A242] , what is its reported Cmax?
5490
